# protocol: soluble fraction after stress (log2 fold change); higher = more stays soluble; pooled small domains, quantitative proteomics;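 also: 20 min heating vs room temperature control held 20 min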
# test-parameters: stress: 75 degC
reported-property: soluble fraction (log2)
Hey, just send me the number, nothing else.

HMNVPATAEAYEALLADAESVGKSLWGHEAKRFAAEQALLSAGLREVIQVDPDKARELALRLRGLLDEYRG = 0.19
HMGEMTDFETLRDMYLTGQIWNIDDLIEANGVEGRIVRRGTNYIAFNDRDGKVHKAWLHEVTINE = -0.434
HMTTGGAEELGRTERKIVEQVGRGLSNREIAQVLGLSEGTVRNYLSTILGKLGLRDRTQLAIWSVQTGFAA = 0.21

The value of soluble fraction (log2) measured for the sequence `HMRDLVTYVVQVNGKLRGKLEVSPSTDDNSLKTMALELENVQRALEGLSVKKVIVIPGKMVSIAAG` turned out to be -0.972

The value of soluble fraction (log2) measured for the sequence `HMEKSSALRAKEAFMALYHDGKFKPGTKIPSESNMAELLGVSRETWRKALALLRGDGVLYSKHGSGTYLLE` turned out to be 0.254

The value of soluble fraction (log2) measured for the sequence `HMVKNYYEILEVDKKASPEVIEKAYKTLAKKYHPDLQEAENNGQYEEKMKEINEAYSVLSDEFKRRTYDEQ` turned out to be 0.123

The value of soluble fraction (log2) measured for the sequence `HMDTETLIDKYQLNASEAAVLRFMDKNRDSLRDLGIRDVARASYVSTATIVNMAKKIGYSGYSELVFAYGS` turned out to be -3.69

The value of soluble fraction (log2) measured for the sequence `HMQEPVYRPVFPGMTDADRQSAMEALKEGGFSPRLNRQTGQLEVDASGYHEAKIYLASQGIPAE` turned out to be 0.0608
